Hey, just so you know, these numbers are from ChEMBL document CHEMBL2321868.

# systemName: Cathepsin E (Homo sapiens, UniProt P14091)
# Sequence (P14091 whole entry): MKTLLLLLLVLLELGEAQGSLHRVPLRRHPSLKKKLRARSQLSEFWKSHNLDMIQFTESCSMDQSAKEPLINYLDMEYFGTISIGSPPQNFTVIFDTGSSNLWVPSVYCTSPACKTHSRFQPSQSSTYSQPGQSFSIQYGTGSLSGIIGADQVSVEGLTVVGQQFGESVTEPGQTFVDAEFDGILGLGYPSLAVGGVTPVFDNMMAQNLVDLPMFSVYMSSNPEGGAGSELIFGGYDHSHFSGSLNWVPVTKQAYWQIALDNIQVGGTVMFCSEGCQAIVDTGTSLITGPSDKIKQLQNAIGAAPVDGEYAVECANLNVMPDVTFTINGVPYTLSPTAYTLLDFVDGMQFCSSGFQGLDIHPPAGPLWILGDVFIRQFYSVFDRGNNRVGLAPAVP
# testDetails: Inhibition of human recombinant cathepsin-E expressed in Escherichia coli using Ac- E-D(EDANS)-KPILFFRLG-K(Dabcyl)-E-Amid as substrate incubated for 1 hr prior to substrate addition measured after 1 hr by FRET-based enzymatic assay
measuredEndpoint: pIC50
The scale used: pIC50 is minus the common logarithm of the concentration in molar units.

Lab request: please report pIC50 under test system Cathepsin E (Homo sapiens, UniProt P14091) for Clc1ccc(N(C[C@@H]2CNC[C@H]2Cc2ccccc2)c2ccccc2)cc1
4.96

###

# systemName: Adrenergic receptor alpha-1 (Homo sapiens, UniProt P35348+P25100+P35368)
# Sequence (P35348 whole entry): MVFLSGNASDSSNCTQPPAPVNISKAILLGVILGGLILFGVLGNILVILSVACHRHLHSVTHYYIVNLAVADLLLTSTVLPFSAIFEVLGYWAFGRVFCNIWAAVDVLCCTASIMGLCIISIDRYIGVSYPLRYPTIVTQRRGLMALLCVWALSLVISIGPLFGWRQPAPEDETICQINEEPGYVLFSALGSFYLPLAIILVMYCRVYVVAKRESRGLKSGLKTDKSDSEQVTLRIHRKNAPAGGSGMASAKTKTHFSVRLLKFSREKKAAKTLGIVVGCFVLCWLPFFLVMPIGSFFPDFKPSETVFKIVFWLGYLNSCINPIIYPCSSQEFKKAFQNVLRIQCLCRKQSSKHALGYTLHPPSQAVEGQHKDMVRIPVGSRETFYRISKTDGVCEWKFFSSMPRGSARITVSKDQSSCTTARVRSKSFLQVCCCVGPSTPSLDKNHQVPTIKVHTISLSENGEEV
# Sequence (P25100 whole entry): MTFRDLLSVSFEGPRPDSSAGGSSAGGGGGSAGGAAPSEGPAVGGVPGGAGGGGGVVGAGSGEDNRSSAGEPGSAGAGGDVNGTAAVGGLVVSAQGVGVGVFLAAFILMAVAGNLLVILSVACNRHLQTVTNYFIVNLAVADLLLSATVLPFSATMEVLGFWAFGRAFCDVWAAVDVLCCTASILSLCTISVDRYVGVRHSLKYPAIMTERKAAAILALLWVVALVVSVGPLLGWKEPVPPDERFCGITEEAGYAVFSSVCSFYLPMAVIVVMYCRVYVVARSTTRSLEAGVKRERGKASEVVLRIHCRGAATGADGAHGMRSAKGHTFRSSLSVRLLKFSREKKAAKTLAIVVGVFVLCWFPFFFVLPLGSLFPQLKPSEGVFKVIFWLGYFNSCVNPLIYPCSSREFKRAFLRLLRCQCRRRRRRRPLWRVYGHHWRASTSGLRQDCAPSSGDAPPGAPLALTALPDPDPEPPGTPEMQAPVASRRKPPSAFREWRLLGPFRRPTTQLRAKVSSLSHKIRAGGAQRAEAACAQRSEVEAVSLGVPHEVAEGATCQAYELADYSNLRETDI
# Sequence (P35368 whole entry): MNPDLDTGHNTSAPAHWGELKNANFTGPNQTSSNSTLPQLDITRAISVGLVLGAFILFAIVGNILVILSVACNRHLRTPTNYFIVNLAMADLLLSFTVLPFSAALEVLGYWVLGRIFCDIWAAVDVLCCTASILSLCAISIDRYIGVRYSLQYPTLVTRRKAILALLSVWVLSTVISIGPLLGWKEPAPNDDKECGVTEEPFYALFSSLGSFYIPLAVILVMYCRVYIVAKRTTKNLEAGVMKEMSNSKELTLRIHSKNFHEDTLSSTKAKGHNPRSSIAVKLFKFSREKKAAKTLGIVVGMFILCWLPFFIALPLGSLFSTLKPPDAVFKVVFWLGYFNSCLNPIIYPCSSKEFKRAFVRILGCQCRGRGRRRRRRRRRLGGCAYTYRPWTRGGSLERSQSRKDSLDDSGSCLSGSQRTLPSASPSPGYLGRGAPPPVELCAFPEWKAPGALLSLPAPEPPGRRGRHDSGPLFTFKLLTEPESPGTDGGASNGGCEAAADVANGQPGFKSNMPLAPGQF
# testDetails: Inhibition of alpha-1 adrenoceptor (unknown origin)
measuredEndpoint: IC50

Item: COCCCOc1cc(C(=O)N(C[C@@H]2CNC[C@H]2Cc2ccccc2)C(C)C)ccc1OC.Cl Test system: Adrenergic receptor alpha-1 (Homo sapiens, UniProt P35348+P25100+P35368) Read-out: IC50 Value: ?
> 1 µM
